- System: Streptococcus faecium ATCC 8043
- Measurement description: In vitro MIC, Agar Well Diffusion Method
- Assay type: cell-based
- Test context: Enterococcus faecium, ATCC8043; Agar Well Diffusion Method; Streptococcus faecium ATCC 8043; read-out: In Vitro MIC
Where a name gives a salt, the structure may show the parent alone.
Property label: MIC (µg/mL)
Your answer is read as µg/mL, so omit the unit and give the number.

Some solved entries appear below for comparison.
Compound: CC1(C)S[C@@H]2[C@H](N=CN3CCN(c4c(F)cc5c(=O)c(C(=O)O)cn(CCF)c5c4F)CC3)C(=O)N2[C@H]1C(=O)O [Compound D, monosodium salt]
Value units: µg/mL
MIC: 15.6

Compound: CCn1cc(C(=O)OC)c(=O)c2cc(F)c(N3CCN(C=N[C@@H]4C(=O)N5[C@@H]4SC(C)(C)[C@@H]5C(=O)O)CC3)cc21 [Compound A]
Value units: µg/mL
MIC: 250

Compound: CCn1cc(C(=O)O)c(=O)c2cc(F)c(N3CCN(C=N[C@@H]4C(=O)N5[C@@H]4SC(C)(C)[C@@H]5C(=O)O)CC3)nc21 [Compound H, disodium salt]
Value units: µg/mL
MIC: 125

Compound: CCn1cc(C(=O)O)c(=O)c2cc(F)c(N3CCN(C=N[C@@H]4C(=O)N5[C@@H]4SC(C)(C)[C@@H]5C(=O)O)CC3)cc21 [Compound B, monosodium salt]
Value units: µg/mL
MIC: 62.5

// next entry
Kindly note the recorded MIC for CCn1cc(C(=O)O)c(=O)c2cc(F)c(N3CCN(C=N[C@@H]4C(=O)N5C(C(=O)O)=C(C)CS[C@H]45)CC3)cc21 [Compound C, disodium salt] , which is 500

###

- Test system: Proteus vulgaris 101N
- Measurement description: In vitro MIC, Agar Well Diffusion Method
- Type: cell-based
- Test context: Agar Well Diffusion Method; Proteus vulgaris 101N; read-out: In Vitro MIC
- Procedure: In vitro antimicrobial activity was determined in BBL seed agar. Serial dilutions of the test compound were pipetted into agar wells (80 μL per well). […] For reference, see A. H. Litton, Antibiotics: Assessment of Antimicrobial Activity and Resistance, Academic Press, New York, pages 19-30 (1983).
Counter-ions that a name gives are not always drawn.
Property label: MIC (µg/mL)
Your answer is read as µg/mL, so omit the unit and give the number.

Kindly note the recorded MIC for CCn1cc(C(=O)OC)c(=O)c2cc(F)c(N3CCN(C=N[C@@H]4C(=O)N5[C@@H]4SC(C)(C)[C@@H]5C(=O)O)CC3)cc21 [Compound A] , which is 62.5

Kindly note the recorded MIC for CCn1cc(C(=O)O)c(=O)c2cc(F)c(N3CCN(C=N[C@@H]4C(=O)N5[C@@H]4SC(C)(C)[C@@H]5C(=O)O)CC3)nc21 [Compound H, disodium salt] , which is 7.8

Kindly note the recorded MIC for CCn1cc(C(=O)O)c(=O)c2cc(F)c(N3CCN(C=N[C@@H]4C(=O)N5[C@@H]4SC(C)(C)[C@@H]5C(=O)O)CC3)cc21 [Compound B, monosodium salt] , which is 1.95

###

Let's look at some molecules and their measured MIC.
- System: Enterobacter cloacae 5699
- Measurement description: In vitro MIC, Broth Dilution Method
- Format: cell-based
- Test context: Enterobacter cloacae, 5699, read-out: In Vitro MIC
Structures can show the parent of a compound that is named as a salt.
Your answer is read as µg/mL, so omit the unit and give the number.

Some solved entries appear below for comparison.
Molecule: CCn1cc(C(=O)O)c(=O)c2cc(F)c(N3CCCN(C=N[C@@H]4C(=O)N5[C@@H]4SC(C)(C)[C@@H]5C(=O)O)CC3)nc21 [Compound K, disodium salt]
Result value: 4

Molecule: CCn1cc(C(=O)[O-])c(=O)c2cc(F)c(N3CCN(C=N[C@H]4CN(S(=O)(=O)[O-])C4=O)CC3)cc21.[Na+].[Na+] [Compound E]
Result value: 0.125

Molecule: CCn1cc(C(=O)[O-])c(=O)c2cc(F)c(N3CCN(C=N[C@@H]4C(=O)N(S(=O)(=O)[O-])[C@@H]4COC(N)=O)CC3)cc21.[Na+].[Na+] [Compound F]
Result value: 0.063

Molecule: CCn1cc(C(=O)O)c(=O)c2cc(F)c(N3CCN(C=N[C@@H]4C(=O)N5[C@@H]4SC(C)(C)[C@@H]5C(=O)O)CC3)nc21 [Compound H, disodium salt]
Result value: 0.125

Molecule: CCn1cc(C(=O)O)c(=O)c2cc(F)c(N3CCN(C=N[C@@H]4C(=O)N5C(C(=O)O)=C(C)CS[C@H]45)CC3)cc21 [Compound C, disodium salt]
Result value: 0.063

// next entry
Kindly note the recorded MIC for CCn1cc(C(=O)O)c(=O)c2cc(F)c(N3CCN(C=N[C@@H]4C(=O)N5[C@@H]4SC(C)(C)[C@@H]5C(=O)O)CC3)cc21 [Compound B, monosodium salt] , which is 0.063

###

- System: Klebsiella pneumoniae A
- Measurement description: In vitro MIC, Broth Dilution Method
- Type: cell-based
- Test context: Broth Dilution Method; Klebsiella pneumoniae A; read-out: In Vitro MIC
Structures can show the parent of a compound that is named as a salt.
Property label: MIC (µg/mL)
Your answer is read as µg/mL, so omit the unit and give the number.

Compound: CCn1cc(C(=O)O)c(=O)c2cc(F)c(N3CCCN(C=N[C@@H]4C(=O)N5[C@@H]4SC(C)(C)[C@@H]5C(=O)O)CC3)nc21 [Compound K, disodium salt]
MIC [µg/mL]: 2

Kindly note the recorded MIC for CCn1cc(C(=O)OC)c(=O)c2cc(F)c(N3CCN(C=N[C@@H]4C(=O)N5[C@@H]4SC(C)(C)[C@@H]5C(=O)O)CC3)cc21 [Compound A] , which is 16

Kindly note the recorded MIC for CCn1cc(C(=O)O)c(=O)c2cc(F)c(N3CCN(C=N[C@@H]4C(=O)N5[C@@H]4SC(C)(C)[C@@H]5C(=O)O)CC3)nc21 [Compound H, disodium salt] , which is 0.25

###

- Tested on: Staphylococcus aureus ATCC 29213
- Measurement description: In vitro MIC, Broth Dilution Method
- Format: cell-based
- Test context: ATCC29213; Broth Dilution Method; Staphylococcus aureus ATCC 29213; read-out: In Vitro MIC
Structures can show the parent of a compound that is named as a salt.
Let's look at some molecules and their measured MIC.
Your answer is read as µg/mL, so omit the unit and give the number.

Some solved entries appear below for comparison.
Molecule: CCn1cc(C(=O)O)c(=O)c2cc(F)c(N3CCCN(C=N[C@@H]4C(=O)N5[C@@H]4SC(C)(C)[C@@H]5C(=O)O)CC3)nc21 [Compound K, disodium salt]
MIC (µg/mL): 16

Molecule: CCn1cc(C(=O)O)c(=O)c2cc(F)c(N3CCN(C=N[C@@H]4C(=O)N5C(C(=O)O)=C(C)CS[C@H]45)CC3)cc21 [Compound C, disodium salt]
MIC (µg/mL): 1

Molecule: CCn1cc(C(=O)O)c(=O)c2cc(F)c(N3CCN(C=N[C@@H]4C(=O)N5C(C(=O)O)=C(CSc6nc(=O)c(=O)[nH]n6C)CS[C@H]45)CC3)cc21 [Compound J, disodium salt]
MIC (µg/mL): 2

Molecule: CCn1cc(C(=O)O)c(=O)c2cc(F)c(N3CCCN(C=N[C@@H]4C(=O)N5[C@@H]4SC(C)(C)[C@@H]5C(=O)O)CC3)cc21 [Compound G, disodium salt]
MIC (µg/mL): 16

Kindly note the recorded MIC for CCn1cc(C(=O)OC)c(=O)c2cc(F)c(N3CCN(C=N[C@@H]4C(=O)N5[C@@H]4SC(C)(C)[C@@H]5C(=O)O)CC3)cc21 , which is 16

###

- System: Pseudomonas aeruginosa Stone 130
- Measurement description: In vitro MIC, Broth Dilution Method
- Format: cell-based
- Test context: STONE130; Broth Dilution Method; Pseudomonas aeruginosa Stone 130; read-out: In Vitro MIC
Where a name gives a salt, the structure may show the parent alone.
Property label: MIC (µg/mL)
Your answer is read as µg/mL, so omit the unit and give the number.

Some solved entries appear below for comparison.
Compound: CCn1cc(C(=O)O)c(=O)c2cc(F)c(N3CCCN(C=N[C@@H]4C(=O)N5[C@@H]4SC(C)(C)[C@@H]5C(=O)O)CC3)nc21 [Compound K, disodium salt]
MIC [µg/mL]: 8
--
Compound: CCn1cc(C(=O)OC)c(=O)c2cc(F)c(N3CCN(C=N[C@@H]4C(=O)N5[C@@H]4SC(C)(C)[C@@H]5C(=O)O)CC3)cc21 [Compound A]
MIC [µg/mL]: 64
--
Compound: CCn1cc(C(=O)O)c(=O)c2cc(F)c(N3CCN(C=N[C@@H]4C(=O)N5C(C(=O)O)=C(CSc6nc(=O)c(=O)[nH]n6C)CS[C@H]45)CC3)cc21 [Compound J, disodium salt]
MIC [µg/mL]: 8
--
Compound: CCn1cc(C(=O)O)c(=O)c2cc(F)c(N3CCN(C=N[C@@H]4C(=O)N5C(C(=O)O)=C(COC(C)=O)CS[C@H]45)CC3)cc21 [Compound I, monosodium salt]
MIC [µg/mL]: 1
--
Compound: CCn1cc(C(=O)O)c(=O)c2cc(F)c(N3CCCN(C=N[C@@H]4C(=O)N5[C@@H]4SC(C)(C)[C@@H]5C(=O)O)CC3)cc21 [Compound G, disodium salt]
MIC [µg/mL]: 8

// next entry
Test item CC1(C)S[C@@H]2[C@H](N=CN3CCN(c4c(F)cc5c(=O)c(C(=O)O)cn(CCF)c5c4F)CC3)C(=O)N2[C@H]1C(=O)O [Compound D, monosodium salt] ; Pseudomonas aeruginosa Stone 130; reported MIC was 4

Value source: patent US5159077A
